Ref: patent US9040529B2

Biological target: human CDK9/CyclinT kinase complex (Homo sapiens, UniProt P50750)
Sequence (P50750 whole entry): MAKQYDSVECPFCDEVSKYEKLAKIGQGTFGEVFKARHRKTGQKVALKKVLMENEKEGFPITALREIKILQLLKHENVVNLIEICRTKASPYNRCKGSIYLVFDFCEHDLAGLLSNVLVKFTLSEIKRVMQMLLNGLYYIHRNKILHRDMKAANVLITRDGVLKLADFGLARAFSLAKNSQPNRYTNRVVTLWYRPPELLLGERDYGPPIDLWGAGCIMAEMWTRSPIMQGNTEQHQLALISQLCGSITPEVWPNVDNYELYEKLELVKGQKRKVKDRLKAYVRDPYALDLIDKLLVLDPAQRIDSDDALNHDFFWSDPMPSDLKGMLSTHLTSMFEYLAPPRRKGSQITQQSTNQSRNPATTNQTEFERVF
Sequence (O60563 whole entry partner): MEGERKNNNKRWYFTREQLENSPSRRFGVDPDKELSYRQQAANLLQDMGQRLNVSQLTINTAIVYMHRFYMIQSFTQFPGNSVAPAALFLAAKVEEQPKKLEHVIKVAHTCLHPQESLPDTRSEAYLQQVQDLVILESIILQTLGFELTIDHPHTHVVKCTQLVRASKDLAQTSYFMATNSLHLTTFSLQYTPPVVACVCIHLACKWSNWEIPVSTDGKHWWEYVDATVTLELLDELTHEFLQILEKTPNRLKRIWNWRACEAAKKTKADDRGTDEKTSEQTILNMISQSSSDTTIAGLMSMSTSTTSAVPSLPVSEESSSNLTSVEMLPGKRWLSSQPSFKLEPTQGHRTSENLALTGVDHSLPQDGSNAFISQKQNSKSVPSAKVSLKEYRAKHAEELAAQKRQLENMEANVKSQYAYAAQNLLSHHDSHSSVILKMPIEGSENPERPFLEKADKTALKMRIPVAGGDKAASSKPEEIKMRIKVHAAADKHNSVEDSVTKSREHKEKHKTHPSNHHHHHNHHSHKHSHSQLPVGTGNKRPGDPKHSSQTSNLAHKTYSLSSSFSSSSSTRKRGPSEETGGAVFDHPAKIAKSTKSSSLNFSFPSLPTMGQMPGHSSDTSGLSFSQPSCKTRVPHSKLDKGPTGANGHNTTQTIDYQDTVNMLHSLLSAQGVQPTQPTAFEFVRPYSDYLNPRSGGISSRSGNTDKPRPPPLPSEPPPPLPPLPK
Assay: In vitro CDK9/CyclinT assay (IMAP fluorescence polarization kinase assay)
Details: 5 nM CDK9/CyclinT, 400 nM TAMRA-Rbtide, 12 μM ATP, 1 hour at room temperature; read-out: CDK9 inhibitory range
property-measured: IC50

So for CS(=O)(=O)NCc1cccc(Nc2cc(-c3ccccc3OCc3ccccc3)ncn2)c1 [Example 2] , the logged IC50 turned out to be < 1000 nM

So for CS(=O)(=O)NCc1cccc(Nc2cc(-c3ccc(O)cc3)ncn2)c1 [Example 75] , the logged IC50 turned out to be < 100 nM

So for COc1ccc(-c2cc(Nc3cccc(CNS(C)(=O)=O)c3)ncn2)c(OC)c1 [Example 24] , the logged IC50 turned out to be < 1000 nM

So for CCOc1ccccc1-c1cc(Nc2ccc(CNS(C)(=O)=O)cc2)ncn1 [Example 37] , the logged IC50 turned out to be < 100 nM

So for CS(=O)(=O)NCc1cccc(Nc2cc(-c3ccccc3Oc3ccccc3)ncn2)c1 [Example 4] , the logged IC50 turned out to be < 1000 nM

So for CS(=O)(=O)NCc1ccc(Nc2cc(-c3ccccc3Oc3ccccc3)ncn2)cc1 [Example 40] , the logged IC50 turned out to be < 1000 nM

So for COc1ccccc1-c1cc(Nc2cccc(CNS(=O)(=O)c3cccs3)c2)ncn1 [Example 73] , the logged IC50 turned out to be < 1000 nM

So for CS(=O)(=O)NCc1ccc(Nc2cc(-c3ccccc3)ncn2)cc1 [Example 45] , the logged IC50 turned out to be < 10000 nM

So for CS(=O)(=O)NCc1cccc(Nc2cc(-c3ccccc3OCc3ccc(F)cc3)ncn2)c1 [Example 10] , the logged IC50 turned out to be < 1000 nM

====

Biological target: human CDK9/CyclinT kinase complex (Homo sapiens)
Assay: In vitro CDK9/CyclinT assay (IMAP fluorescence polarization kinase assay)
Settings: 5 nM CDK9/CyclinT, 400 nM TAMRA-Rbtide, 12 μM ATP, 1 hour at room temperature; read-out: CDK9 inhibitory range
property-measured: IC50

Tested on human CDK9/CyclinT kinase complex (Homo sapiens): COc1ccccc1-c1cc(Nc2cccc(CNC(=O)Nc3ccc(F)cc3)c2)ncn1 [Example 85] . Observed IC50: < 10 µM

Tested on human CDK9/CyclinT kinase complex (Homo sapiens): CC(C)Oc1cc(F)ccc1-c1cc(Nc2cccc(CNS(C)(=O)=O)c2)ncn1 [Example 14] . Observed IC50: < 1 µM

Tested on human CDK9/CyclinT kinase complex (Homo sapiens): CS(=O)(=O)NCc1cccc(Nc2cc(-c3ccccc3COc3ccc(OC(F)(F)F)cc3)ncn2)c1 [Example 30] . Observed IC50: > 10 µM

Tested on human CDK9/CyclinT kinase complex (Homo sapiens): COc1ccccc1-c1cc(Nc2cccc(Cn3cnc4ccccc43)c2)ncn1 [Example 64] . Observed IC50: < 0.1 µM

Tested on human CDK9/CyclinT kinase complex (Homo sapiens): COc1ccc(COc2ccccc2-c2cc(Nc3ccc(CNS(C)(=O)=O)cc3)ncn2)cc1 [Example 50] . Observed IC50: < 1 µM

Tested on human CDK9/CyclinT kinase complex (Homo sapiens): CS(=O)(=O)NCc1cccc(Nc2cc(-c3ccccc3OC(F)(F)F)ncn2)c1 [Example 15] . Observed IC50: < 10 µM

Tested on human CDK9/CyclinT kinase complex (Homo sapiens): C[S+]([O-])c1ccccc1-c1cc(Nc2cccc(CNS(C)(=O)=O)c2)ncn1 (centres unmarked) [Example 29] . Observed IC50: < 10 µM

Tested on human CDK9/CyclinT kinase complex (Homo sapiens): COc1ccccc1-c1cc(Nc2cccc(CNC(=O)c3ccc(F)cc3)c2)ncn1 [Example 84] . Observed IC50: < 1 µM

====

Target: human CDK9/CyclinT kinase complex (Homo sapiens, UniProt P50750)
Experiment: In vitro CDK9/CyclinT assay (IMAP fluorescence polarization kinase assay)
Settings: 5 nM CDK9/CyclinT, 400 nM TAMRA-Rbtide, 12 μM ATP, 1 hour at room temperature; read-out: CDK9 inhibitory range
Where a name gives a salt, the structure may show the parent alone.
Give IC50 for every item shown.

So for COc1cc(F)ccc1-c1cc(Nc2cccc(CNc3nc4ccccc4[nH]3)c2)ncn1 , the logged IC50 turned out to be < 1 µM

So for Clc1cc(Nc2cccc(Cn3cnc4ccccc43)c2)ncn1 , the logged IC50 turned out to be < 10 µM

So for Clc1cc(Nc2cccc(Cn3c(CN4CCOCC4)nc4ccccc43)c2)ncn1 , the logged IC50 turned out to be > 10 µM

So for CS(=O)(=O)NCc1cccc(Nc2cc(-c3cccc(C(N)=O)c3)ncn2)c1 , the logged IC50 turned out to be < 10 µM

So for COc1ccccc1-c1cc(Nc2cccc(CN3C(=O)c4ccccc4C3=O)c2)ncn1 , the logged IC50 turned out to be < 0.1 µM

So for CS(=O)(=O)NCc1ccc(Nc2cc(-c3cccc(N)c3)ncn2)cc1 [Example 46, hydrochloride] , the logged IC50 turned out to be < 10 µM

So for CC(C)Oc1cc(F)ccc1-c1cc(Nc2ccc(Cn3cnc4ccccc43)cc2)ncn1 , the logged IC50 turned out to be < 1 µM

So for CSc1ccccc1-c1cc(Nc2cccc(CNS(C)(=O)=O)c2)ncn1 , the logged IC50 turned out to be < 1 µM

====

Target: human CDK9/CyclinT kinase complex (Homo sapiens, UniProt P50750)
Test: In vitro CDK9/CyclinT assay (IMAP fluorescence polarization kinase assay)
Conditions: 5 nM CDK9/CyclinT, 400 nM TAMRA-Rbtide, 12 μM ATP, 1 hour at room temperature; read-out: CDK9 inhibitory range
pIC50: −log10 of the molar value. Structures can show the parent of a compound that is named as a salt.
property-measured: pIC50

Tested on human CDK9/CyclinT kinase complex (Homo sapiens, UniProt P50750): COc1ccc(-c2cc(Nc3cccc(CNS(C)(=O)=O)c3)ncn2)cc1 [Example 19] . Observed pIC50: > 5.00

Tested on human CDK9/CyclinT kinase complex (Homo sapiens, UniProt P50750): CS(=O)(=O)NCc1ccc(Nc2cc(-c3ccc(O)cc3)ncn2)cc1 [Example 76] . Observed pIC50: > 6.00

Tested on human CDK9/CyclinT kinase complex (Homo sapiens, UniProt P50750): CC(C)Oc1cc(F)ccc1-c1cc(Nc2cccc(CNc3nc4ccccc4[nH]3)c2)ncn1 [Example 77] . Observed pIC50: > 7.00

Tested on human CDK9/CyclinT kinase complex (Homo sapiens, UniProt P50750): COc1cccc(F)c1-c1cc(Nc2cccc(CNS(C)(=O)=O)c2)ncn1 [Example 13] . Observed pIC50: > 7.00

Tested on human CDK9/CyclinT kinase complex (Homo sapiens, UniProt P50750): CCCS(=O)(=O)NCc1cccc(Nc2cc(-c3ccccc3OC)ncn2)c1 [Example 71] . Observed pIC50: > 7.00

Tested on human CDK9/CyclinT kinase complex (Homo sapiens, UniProt P50750): COc1ccc(F)cc1-c1cc(Nc2ccc(CNS(C)(=O)=O)cc2)ncn1 [Example 38] . Observed pIC50: > 6.00

Tested on human CDK9/CyclinT kinase complex (Homo sapiens, UniProt P50750): CS(=O)(=O)NCc1cccc(Nc2cc(-c3ccccc3C(F)(F)F)ncn2)c1 [Example 18] . Observed pIC50: < 5.00

Tested on human CDK9/CyclinT kinase complex (Homo sapiens, UniProt P50750): COc1cc(Cl)ccc1-c1cc(Nc2ccc(CNS(C)(=O)=O)cc2)ncn1 [Example 54] . Observed pIC50: > 7.00

Tested on human CDK9/CyclinT kinase complex (Homo sapiens, UniProt P50750): CCOc1ccccc1-c1cc(Nc2cccc(CNS(C)(=O)=O)c2)ncn1 [Example 5] . Observed pIC50: > 7.00

Tested on human CDK9/CyclinT kinase complex (Homo sapiens, UniProt P50750): CC(C)Oc1ccccc1-c1cc(Nc2ccc(CNS(C)(=O)=O)cc2)ncn1 [Example 56] . Observed pIC50: > 7.00

Tested on human CDK9/CyclinT kinase complex (Homo sapiens, UniProt P50750): COc1cccc(-c2cc(Nc3ccc(CNS(C)(=O)=O)cc3)ncn2)c1 [Example 47] . Observed pIC50: > 5.00

Tested on human CDK9/CyclinT kinase complex (Homo sapiens, UniProt P50750): COc1ccccc1-c1cc(Nc2ccc(Cn3cnc4ccccc43)cc2)ncn1 [Example 87] . Observed pIC50: > 6.00

Tested on human CDK9/CyclinT kinase complex (Homo sapiens, UniProt P50750): Clc1cc(Nc2cccc(CNc3nc4ccccc4[nH]3)c2)ncn1 [Example 59] . Observed pIC50: < 5.00

Tested on human CDK9/CyclinT kinase complex (Homo sapiens, UniProt P50750): CS(=O)(=O)NCc1ccc(Nc2cc(-c3ccccc3C(F)(F)F)ncn2)cc1 [Example 43] . Observed pIC50: < 5.00

Tested on human CDK9/CyclinT kinase complex (Homo sapiens, UniProt P50750): COc1ccccc1-c1cc(Nc2cccc(Cn3c(CN4CCOCC4)nc4ccccc43)c2)ncn1 [Example 93] . Observed pIC50: > 5.00

Tested on human CDK9/CyclinT kinase complex (Homo sapiens, UniProt P50750): COc1ccccc1-c1cc(Nc2cccc(Cn3ccc4ccccc43)c2)ncn1 [Example 91] . Observed pIC50: > 5.00

Tested on human CDK9/CyclinT kinase complex (Homo sapiens, UniProt P50750): CS(=O)(=O)NCc1cccc(Nc2cc(-c3ccc(F)cc3F)ncn2)c1 [Example 17] . Observed pIC50: > 5.00

Tested on human CDK9/CyclinT kinase complex (Homo sapiens, UniProt P50750): Oc1ccc(-c2cc(Nc3cccc(Cn4cnc5ccccc54)c3)ncn2)cc1 [Example 82] . Observed pIC50: > 6.00

Tested on human CDK9/CyclinT kinase complex (Homo sapiens, UniProt P50750): CS(=O)(=O)NCc1cccc(Nc2cc(-c3ccccc3)ncn2)c1 [Example 21] . Observed pIC50: > 5.00

Tested on human CDK9/CyclinT kinase complex (Homo sapiens, UniProt P50750): COc1cc(Cl)ccc1-c1cc(Nc2cccc(CNS(C)(=O)=O)c2)ncn1 [Example 25] . Observed pIC50: > 6.00

Tested on human CDK9/CyclinT kinase complex (Homo sapiens, UniProt P50750): COc1ccc(-c2cc(Nc3ccc(CNS(C)(=O)=O)cc3)ncn2)cc1 [Example 57] . Observed pIC50: > 6.00

Tested on human CDK9/CyclinT kinase complex (Homo sapiens, UniProt P50750): COc1ccccc1-c1cc(Nc2cccc(CNS(C)(=O)=O)c2)ncn1 [Example 6] . Observed pIC50: > 7.00

Tested on human CDK9/CyclinT kinase complex (Homo sapiens, UniProt P50750): Clc1cc(Nc2ccc(Cn3cnc4ccccc43)cc2)ncn1 [Example 86] . Observed pIC50: < 5.00

Tested on human CDK9/CyclinT kinase complex (Homo sapiens, UniProt P50750): CC(C)Oc1cc(F)ccc1-c1cc(Nc2ccc(CNS(C)(=O)=O)cc2)ncn1 [Example 48] . Observed pIC50: > 7.00

Tested on human CDK9/CyclinT kinase complex (Homo sapiens, UniProt P50750): COc1ccc(F)cc1-c1cc(Nc2cccc(Cn3cnc4ccccc43)c2)ncn1 [Example 66] . Observed pIC50: > 7.00

Tested on human CDK9/CyclinT kinase complex (Homo sapiens, UniProt P50750): COc1cc(F)ccc1-c1cc(Nc2ccc(CNS(C)(=O)=O)cc2)ncn1 [Example 39] . Observed pIC50: > 7.00

Tested on human CDK9/CyclinT kinase complex (Homo sapiens, UniProt P50750): O=C1c2ccccc2C(=O)N1Cc1cccc(Nc2cc(Cl)ncn2)c1 [Example 67] . Observed pIC50: < 5.00

Tested on human CDK9/CyclinT kinase complex (Homo sapiens, UniProt P50750): Oc1ccc(-c2cc(Nc3ccc(Cn4cnc5ccccc54)cc3)ncn2)cc1 [Example 89] . Observed pIC50: > 6.00

Tested on human CDK9/CyclinT kinase complex (Homo sapiens, UniProt P50750): CC(C)Oc1cc(F)ccc1-c1cc(Nc2cccc(Cn3cnc4ccccc43)c2)ncn1 [Example 81] . Observed pIC50: > 7.00

Tested on human CDK9/CyclinT kinase complex (Homo sapiens, UniProt P50750): Cc1ccccc1-c1cc(Nc2cccc(CNS(C)(=O)=O)c2)ncn1 [Example 11] . Observed pIC50: > 5.00

Tested on human CDK9/CyclinT kinase complex (Homo sapiens, UniProt P50750): CC(C)Oc1ccccc1-c1cc(Nc2cccc(CNS(C)(=O)=O)c2)ncn1 [Example 8] . Observed pIC50: > 6.00

Tested on human CDK9/CyclinT kinase complex (Homo sapiens, UniProt P50750): COc1ccccc1-c1cc(Nc2cccc(CN)c2)ncn1 [Example 69, hydrochloride] . Observed pIC50: > 7.00

Tested on human CDK9/CyclinT kinase complex (Homo sapiens, UniProt P50750): CS(=O)(=O)NCc1cccc(Nc2cc(-c3cccc(N)c3)ncn2)c1 [Example 22] . Observed pIC50: > 6.00

Tested on human CDK9/CyclinT kinase complex (Homo sapiens, UniProt P50750): COc1ccccc1-c1cc(Nc2cccc(CNS(=O)(=O)c3c(Cl)cccc3Cl)c2)ncn1 [Example 70] . Observed pIC50: > 6.00

Tested on human CDK9/CyclinT kinase complex (Homo sapiens, UniProt P50750): COc1cc(F)ccc1-c1cc(Nc2cccc(Cn3cnc4ccccc43)c2)ncn1 [Example 65] . Observed pIC50: > 7.00

Tested on human CDK9/CyclinT kinase complex (Homo sapiens, UniProt P50750): COc1ccccc1-c1cc(Nc2ccc(CNS(C)(=O)=O)cc2)ncn1 [Example 34] . Observed pIC50: > 6.00
